Ref: patent US12319739

assayed-system: T1, endogenous cell surface human MSLN (human, UniProt Q13421 296-598)
T1 construct: whole, on cells; The cell line is named under assay; also called cell-surface MSLN on NCI-H226, OVCAR-3 and AsPC-1 cells
T1 sequence (Q13421 other isoform, or with tags, fused parts or gaps limits assumed): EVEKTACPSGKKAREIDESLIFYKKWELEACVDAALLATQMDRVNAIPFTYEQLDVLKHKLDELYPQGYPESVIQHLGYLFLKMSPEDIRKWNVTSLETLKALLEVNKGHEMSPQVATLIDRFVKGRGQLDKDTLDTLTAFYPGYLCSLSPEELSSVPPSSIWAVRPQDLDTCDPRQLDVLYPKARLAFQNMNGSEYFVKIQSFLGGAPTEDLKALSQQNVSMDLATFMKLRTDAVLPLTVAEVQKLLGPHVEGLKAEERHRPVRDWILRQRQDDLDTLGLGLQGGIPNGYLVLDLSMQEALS
protocol-description: flow cytometry, NCI-H226 cells
pEC50: −log10 of the molar value.
Recorded pEC50, one value per entry.

binder: FS22-172-003-AA/FS28-024 (bispecific antibody, human IgG1, kappa, L234A L235A, V domains shown, IgG1 mAb^2 with LALA; also called FS28-024 in CD137 mAb^2 format) VH: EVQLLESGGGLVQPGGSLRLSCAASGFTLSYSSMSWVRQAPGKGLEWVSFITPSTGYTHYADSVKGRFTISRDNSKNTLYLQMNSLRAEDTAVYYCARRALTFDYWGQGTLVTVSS VL: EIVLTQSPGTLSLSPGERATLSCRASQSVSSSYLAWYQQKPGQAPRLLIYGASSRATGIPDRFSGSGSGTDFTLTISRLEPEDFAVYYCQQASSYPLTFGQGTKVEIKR
pEC50: 9.41
//
binder: FS22-172-003-AA/FS28-024-052 (bispecific antibody, human IgG1, kappa, L234A L235A, V domains shown, IgG1 mAb^2 with LALA) VH: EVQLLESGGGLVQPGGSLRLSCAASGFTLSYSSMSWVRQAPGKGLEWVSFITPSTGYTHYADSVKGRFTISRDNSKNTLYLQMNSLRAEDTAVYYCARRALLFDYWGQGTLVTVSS VL: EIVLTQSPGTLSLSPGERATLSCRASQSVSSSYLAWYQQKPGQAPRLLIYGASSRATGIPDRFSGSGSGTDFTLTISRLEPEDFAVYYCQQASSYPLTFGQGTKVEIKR
pEC50: 9.05
//
binder: FS22-172-003-AA/FS28-256-021 (bispecific antibody, human IgG1, kappa, L234A L235A, V domains shown, IgG1 mAb^2 with LALA) VH: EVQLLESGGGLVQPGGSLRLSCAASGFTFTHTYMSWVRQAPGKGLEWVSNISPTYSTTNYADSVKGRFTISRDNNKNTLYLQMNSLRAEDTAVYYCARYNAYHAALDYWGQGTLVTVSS VL: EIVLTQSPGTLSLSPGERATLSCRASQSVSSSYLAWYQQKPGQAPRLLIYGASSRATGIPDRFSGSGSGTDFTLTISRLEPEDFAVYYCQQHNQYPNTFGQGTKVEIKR
pEC50: 8.40
